Where these numbers come from: PubChem BioAssay AID256

Tested on: CD2F1 mice, L1210 leukemia ip, survival T/C
assay.remarks: NCI In Vivo Anticancer Drug Screen. Data for tumor model L1210 Leukemia (intraperitoneal) in CD2F1 (CDF1) mice
condition.label: endpoint: mean survival time; dose: 100.0 mg/kg/injection; schedule: Q04DX003 (ip); vehicle: saline with Tween-80; higher = longer survival
Protocol: The antitumor activity of compounds was measured in mice bearing transplantable tumors. Survival or tumor size were measured and the results are expressed as the measurement made in the treated group (T) divided by the measurement made in the vehicle treated control group (C). The tumor model used in this assay is L1210 Leukemia (intraperitoneal) in CD2F1 (CDF1) mice
Toxic doses and inconclusive results are not listed.
Entries and their T/C values follow.
property: T/C

{"compound": "C=CCNC(=S)NCCO", "measurement": "103 % of control"}
{"compound": "c1ccc2c(c1)Nc1ccncc1S2", "measurement": "94 % of control"}
{"compound": "CN(c1ccccc1Cl)S(C)(=O)=O", "measurement": "98 % of control"}
{"compound": "O=CNc1ccc(C(=O)O)c(O)c1", "measurement": "100 % of control"}
{"compound": "COCCNC(=O)Nc1cccc2c1CCCC2", "measurement": "106 % of control"}
{"compound": "O=C1c2ccccc2S(=O)(=O)N1CC(O)COc1ccc(Cl)cc1 (configuration not stated)", "measurement": "101 % of control"}
{"compound": "O=c1[nH]cc(C(O)Cc2ccccc2)c(=O)[nH]1 (configuration not stated)", "measurement": "104 % of control"}
{"compound": "c1ccc2[s+]cccc2c1", "measurement": "95 % of control"}
{"compound": "CC1(C)SC(C(NC(=O)Cc2ccccc2)C(=O)O)NC1C(=O)O (configuration not stated)", "measurement": "101 % of control"}
{"compound": "CC(O)/C=C/c1ccccc1O (configuration not stated)", "measurement": "90 % of control"}
{"compound": "COc1cc2c3c(c1OC)C1(C=CC(=O)C=C1)CC3N(C(C)=O)CC2 (configuration not stated)", "measurement": "97 % of control"}
{"compound": "CCc1c(C)[nH]c2ccc([N+](=O)[O-])cc12", "measurement": "100 % of control"}
{"compound": "C/C=C(\\C)C(C)(C#N)Nc1ccccc1 (configuration not stated)", "measurement": "101 % of control"}
{"compound": "N#Cc1cc([N+](=O)[O-])ccc1Cl", "measurement": "105 % of control"}
{"compound": "CCOC(=O)c1ccc(NC(=O)Oc2cc3ccccc3cc2C(=O)Nc2ccccc2)cc1", "measurement": "92 % of control"}
{"compound": "COc1ccc2c(c1)C(=O)C(Br)CC2 (configuration not stated)", "measurement": "108 % of control"}
{"compound": "O=C1c2ccccc2C(=O)c2c(O)ccc(O)c21", "measurement": "94 % of control"}
{"compound": "CNCc1c[nH]c(=O)[nH]c1=O", "measurement": "102 % of control"}
{"compound": "CNC(=O)Oc1c(Cl)c(C(Cl)(Cl)Cl)nc2ccccc12", "measurement": "89 % of control"}
{"compound": "O=C(CC(NC(=O)OCc1ccccc1)C(=O)OCc1ccccc1)OCc1ccccc1 (configuration not stated)", "measurement": "92 % of control"}
{"compound": "N#CC(C#N)=C1CCNc2ccccc21", "measurement": "101 % of control"}
{"compound": "COc1ccc(Cc2nnc(Cc3ccc(OC)c(OC)c3)nn2)cc1OC", "measurement": "101 % of control"}
{"compound": "Nc1c(Cl)c(Cl)cc(Cl)c1Cl", "measurement": "97 % of control"}
{"compound": "c1ccc2c([Si](O[Si](c3cccc4ccccc34)C3CCCCC3)C3CCCCC3)cccc2c1", "measurement": "93 % of control"}
{"compound": "ClC=C(c1ccc(Cl)cc1)c1ccc(Cl)cc1", "measurement": "97 % of control"}
{"compound": "O=C(/C=C/c1ccncc1)c1ccccc1", "measurement": "89 % of control"}
{"compound": "O=Cc1cc(Cl)ccc1O", "measurement": "95 % of control"}

----------
The compounds listed here are annotated with their T/C.
Test system: CD2F1 mice, L1210 leukemia ip, survival T/C
assay.remarks: NCI In Vivo Anticancer Drug Screen. Data for tumor model L1210 Leukemia (intraperitoneal) in CD2F1 (CDF1) mice
condition.label: endpoint: mean survival time; dose: 100.0 mg/kg/injection; schedule: Q01DX001 (ip); vehicle: carboxymethylcellulose (CMC); higher = longer survival
Inconclusive results and toxic doses are left out.
property: T/C

{"smiles.input": "O=c1[nH]c2c([N+](=O)[O-])cc(Br)cc2c2ccccc12", "tested.on": "CD2F1 mice, L1210 leukemia ip, survival T/C", "measurement": "100 % of control"}
{"smiles.input": "ON=C1c2cc(Br)ccc2-c2ccc(Br)cc21", "tested.on": "CD2F1 mice, L1210 leukemia ip, survival T/C", "measurement": "102 % of control"}
{"smiles.input": "CCOC(=O)c1ccc2c(c1)Cc1cc(N)ccc1-2", "tested.on": "CD2F1 mice, L1210 leukemia ip, survival T/C", "measurement": "98 % of control"}
{"smiles.input": "S=C(NCc1ccccc1)Nc1ncn[nH]1", "tested.on": "CD2F1 mice, L1210 leukemia ip, survival T/C", "measurement": "86 % of control"}

----------
Tested on: CD2F1 mice, L1210 leukemia ip, survival T/C
assay.remarks: NCI In Vivo Anticancer Drug Screen. Data for tumor model L1210 Leukemia (intraperitoneal) in CD2F1 (CDF1) mice
condition.label: endpoint: mean survival time; dose: 12.5 mg/kg/injection; schedule: Q04DX003 (ip); vehicle: saline with Tween-80
Inconclusive results and toxic doses are left out. How the source made its calls: active means survival T/C of 150% or more; inactive means T/C below 125% in these data.
Classes used: 1.0 (active), 0.0 (inactive)

{"compound": "Brc1ccc([I+]c2ccc(Br)cc2)cc1", "class.label": 0.0}
{"compound": "[Cl][Pd][Cl]", "class.label": 0.0}
{"compound": "c1cc2c(cc1NC1=NCCO1)CCC2", "class.label": 0.0}
{"compound": "CCOC(=O)c1cnc(NN)nc1Nc1cc(Cl)cc(Cl)c1", "class.label": 0.0}
{"compound": "O=C1C=CC(=O)N1c1ccc(Cl)cc1Cl", "class.label": 0.0}
{"compound": "CCOC(=O)C([NH-])C([NH-])C(=O)OCC.[Cl][Pt+2][Cl] (centres undefined)", "class.label": 1.0}
{"compound": "O=[N+]([O-])O.O=[N+]([O-])O.[NH-]C(c1ccccc1)C([NH-])c1ccccc1.[Pt+2] (centres undefined)", "class.label": 1.0}
{"compound": "CCN1CC2c3cc(OC)c(OC)cc3CC(c3ccccc3)C2C1 (centres undefined)", "class.label": 0.0}
{"compound": "O=C(CBr)c1cccc(OC(=O)c2ccccc2)c1", "class.label": 0.0}

----------
Tested on: CD2F1 mice, L1210 leukemia ip, survival T/C
assay.remarks: NCI In Vivo Anticancer Drug Screen. Data for tumor model L1210 Leukemia (intraperitoneal) in CD2F1 (CDF1) mice
condition.label: endpoint: mean survival time; dose: 400.0 mg/kg/injection; schedule: Q01DX001 (ip); vehicle: Klucel (hydroxypropylcellulose) (HPC); higher = longer survival
Toxic doses and inconclusive results are not listed.

{"smiles.input": "Clc1ccc(/C=N/N=C/c2ccc(Cl)cc2Cl)c(Cl)c1", "T/C": "103 % of control"}
{"smiles.input": "C[Si](C)(C)/C(=N/Nc1ccc([N+](=O)[O-])cc1[N+](=O)[O-])c1ccccc1", "T/C": "92 % of control"}
{"smiles.input": "CC(CC(=O)c1ccccc1)=Nc1ccccc1.CC(CC(=O)c1ccccc1)=Nc1ccccc1.[O]=[V]", "T/C": "93 % of control"}
{"smiles.input": "CCOS(=O)(=O)c1ccc(N)c([N+](=O)[O-])c1", "T/C": "100 % of control"}
{"smiles.input": "Cc1ccc(S(=O)(=O)NN=C2CCC3(CC2)c2ccccc2-c2ccccc23)cc1", "T/C": "98 % of control"}
{"smiles.input": "N#CC1(C2(C#N)CCCCC2)CCCCC1", "T/C": "100 % of control"}

----------
System: CD2F1 mice, L1210 leukemia ip, survival T/C
assay.remarks: NCI In Vivo Anticancer Drug Screen. Data for tumor model L1210 Leukemia (intraperitoneal) in CD2F1 (CDF1) mice
condition.label: endpoint: mean survival time; dose: 100.0 mg/kg/injection; schedule: Q01DX009 (ip); vehicle: saline sonified; higher = longer survival
Inconclusive results and toxic doses are left out.

{"molecule": "C1CC2OC2CCC2OC12 (stereo unspecified)", "T/C": "103 % of control"}
{"molecule": "[N-]=[N+]=CC(=O)NCC(=O)N/N=C/c1ccccn1", "T/C": "104 % of control"}
{"molecule": "N#CNC(N)=O", "T/C": "102 % of control"}
{"molecule": "NC(N)=NC(N)=Nc1ccc([As](=O)(O)O)c(O)c1", "T/C": "111 % of control"}
{"molecule": "Cc1c2cnccc2c(C)c2c1c1ccccc1n2CCNCCO", "T/C": "87 % of control"}
{"molecule": "CC(N)(CCO)C(=O)O (stereo unspecified)", "T/C": "97 % of control"}
